assay summary: qHTS of pediatric cancer cell lines to identify multiple opportunities for drug repurposing: Primary screen for SJ-GBM2 cells (AID 1347091)
study conditions: SJ-GBM2 viability, CellTiter-Glo luminescence, 48 h; series mostly up to 46 µM
Inconclusive results are not listed. The source made the active and inactive calls. Calls come from the whole dose curve; as a rule, active = well fitted cell-killing curve with a large enough effect; inconclusive = small, poorly fitted or top-dose-only effect; inactive = no such curve, though single readings can be large or run the other way.
Write down the outcome that applies. Available outcomes: active, inactive

## Input Hi, sorry to bother you, what did the test record for `O=C(NOCC1CC1)c1ccc(F)c(F)c1Nc1ccc(I)cc1Cl` ?
## Output active

## Input Hi, sorry to bother you, what did the test record for `Cc1c(C(=O)NN2CCCCC2)nn(-c2ccc(Cl)cc2Cl)c1-c1ccc(Cl)cc1` ?
## Output active

## Input Hi, sorry to bother you, what did the test record for `CC(C)C[C@H](NC(=O)[C@H](Cc1ccccc1)NC(=O)c1cnccn1)B(O)O` ?
## Output active

## Input Hi, sorry to bother you, what did the test record for COc1cc2nc(N3CCN(C(=O)C4CCCO4)CC3)nc(N)c2cc1OC (stereo not given) ?
## Output inactive

## Input Hi, sorry to bother you, what did the test record for `CN(C)c1ccc(O)c2c1C[C@H]1C[C@H]3[C@H](N(C)C)C(=O)C(C(N)=O)=C(O)[C@@]3(O)C(=O)C1=C2O` ?
## Output inactive

## Input Hi, sorry to bother you, what did the test record for `Clc1ccc2c(N3CCN(CCCN4CCN(c5ccnc6cc(Cl)ccc56)CC4)CC3)ccnc2c1` ?
## Output inactive

## Input Hi, sorry to bother you, what did the test record for `CN1C(C(=O)Nc2ccccn2)=C(O)c2sccc2S1(=O)=O` ?
## Output inactive

## Input Hi, sorry to bother you, what did the test record for `CC1(C)C(=O)N(CCN2CCC(C(=O)c3ccc(F)cc3)CC2)c2ccccc21` ?
## Output inactive

## Input Hi, sorry to bother you, what did the test record for Cc1c(OCC(F)(F)F)ccnc1CS(=O)c1nc2ccccc2[nH]1 (stereo not given) ?
## Output inactive

## Input Hi, sorry to bother you, what did the test record for CC1=C(C)C(=O)C(C(CCCCCC(=O)O)c2ccccc2)=C(C)C1=O (stereo not given) ?
## Output inactive

## Input Hi, sorry to bother you, what did the test record for `Cc1cc2c(s1)Nc1ccccc1N=C2N1CCN(C)CC1` ?
## Output inactive

## Input Hi, sorry to bother you, what did the test record for `CN(C)[C@@H](CCOc1cccc2ccccc12)c1ccccc1` ?
## Output inactive

## Input Hi, sorry to bother you, what did the test record for `COC(=O)N[C@H](C(=O)N[C@@H](Cc1ccccc1)[C@@H](O)CN(Cc1ccc(-c2ccccn2)cc1)NC(=O)[C@@H](NC(=O)OC)C(C)(C)C)C(C)(C)C` ?
## Output inactive

## Input Hi, sorry to bother you, what did the test record for O=C(c1ccccc1)c1ccc2n1CCC2C(=O)O (stereo not given) ?
## Output inactive

## Input Hi, sorry to bother you, what did the test record for CC(S)C(=O)NCC(=O)O (stereo not given) ?
## Output inactive

## Input Hi, sorry to bother you, what did the test record for `CCOC(=O)C1=C[C@@H](OC(CC)CC)[C@H](NC(C)=O)[C@@H](N)C1` ?
## Output inactive

## Input Hi, sorry to bother you, what did the test record for CCC(C)(Oc1ccc(C2(c3ccc(OC(C)(CC)C(=O)O)cc3)CCCCC2)cc1)C(=O)O (stereo not given) ?
## Output inactive

## Input Hi, sorry to bother you, what did the test record for `CN1CCC(=C2c3ccccc3CCc3sccc32)CC1` ?
## Output inactive

## Input Hi, sorry to bother you, what did the test record for `COC1=C(OC)C(=O)C(CCCCCCCCCCO)=C(C)C1=O` ?
## Output inactive

## Input Hi, sorry to bother you, what did the test record for `O=c1ccc2ccc(O)c(O)c2o1` ?
## Output inactive
